System: SKOV-3 ovarian cancer cells
Conditions: 24 h
No end group written: not given here.
Experimental Readout: pIC50
Quick note: pIC50 values are minus log10 of concentrations in mol/L.

Query: Report pIC50 for GKWMSLLKHILK-NH2 [HAL-2] tested on SKOV-3 ovarian cancer cells.
Reply: 4.27

====

Test: in vitro
Conditions: mouse, serum, pH 8.2
Description: A 1.5 mL mixture consisting of 30 μL mouse serum, 750 μL of peptides (1 mg mL^–1) and 1470 μL of digestion buffer (pH 8.2, 50 mM Tris, 20 mM CaCl2) was incubated at 37 °C for 16 h. Peptides treated with digestion buffer served as controls. […] The quenched solution was analysed by reverse-phase high performance liquid chromatography (RP-HPLC). […] The cells were then washed with PBS (1 mL × 3 times) before imaging. Cell fluorescence images were obtained with a confocal laser scanning microscope. […]
No end group written: not given here.
Experimental Readout: remaining at 16 h (%)
Provide the reading as a plain figure in %.

Query: So what does the record say about remaining at 16 h for GKWMSLLKHILK-NH2 [HAL-2] ?
Reply: 11.2

====

Experiment: in vitro
Settings: mouse, serum, pH 8.2
No end group written: not given here.
Experimental Readout: remaining at 8 h (%)
# value in %; strip the unit string

Query: Item under review: GKWMSLLKHILK-NH2 [HAL-2] . Reported remaining at 8 h?
Reply: 29.4

====

Experiment: in vitro
Details: mouse, serum, pH 8.2
No end group written: not given here.
Experimental Readout: remaining at 1 h (%)
Write the number in % without appending the unit.

Query: Returns the measured remaining at 1 h for the input substance. Input: GKWMSLLKHILK-NH2 [HAL-2]
Reply: 55.4

All values here come from paper PMC5676250.
